test-name: amyloid nucleation score (Sup35N fusion, yeast selection) (log enrichment); library NNK3; higher = more nucleation; inactive = no reads after selection;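 note: zero at mode of non-aggregating sequences after 7 days selection at 30°C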
endpoint-name: amyloid nucleation score

Worked cases, amyloid nucleation score given:
CCHSITFLVNLGMRERKNKV
inactive
RFEYMGNVMES
inactive
LGKHRANHCMAGQDVAYKWV
-0.831
LNCIFLVKVIYWTRFTWSTY
inactive
RHLLTISKPEMMCGDADEYR
inactive
WLWTLALNFTYKYFMCGKYK
inactive
VSHSAFVLNSCERE
inactive
SGFVSWN
inactive
YPKRMCDRHS
inactive
DFGMVLSNRFKTMKDCSYFC
0.785

We now examine a further substance.
The substance identified as `CDFIHCLVCFLPIWKSCGTE` registered its amyloid nucleation score at 0.732
